This collection of values is drawn from ChEMBL document CHEMBL5608141.

- System: Colon cancer organoid
- TEST DESCRIPTION: Identification of compartment-specific drug sensitivities in O20 CRC organoid-stroma F20 CAF co-cultures. Organoid is transduced with Lucferase2-P2A-EGFP lentivirus, fibroblast with Renilla-dsRed lentivirus. Dual-Glo Luciferase assay is used to report viability data.
- Type: functional, Homo sapiens
- Set-up: dose or concentration left out as unconfirmed
- COND: Transduced with Lucferase2-P2A-EGFP lentivirus
QUANTITY KIND: Cell Viability (%)
Supply the numeric figure in %, leaving out any unit text.

* Cc1cc2c(-c3ccco3)cnc(N[C@H]3CCN(C)C[C@@H]3C(=O)NC3CCCCC3)c2[nH]c1=O | 101.663
* O=C(N[C@H]1CCCCC/C=C\C2C[C@@]2(C(=O)O)NC(=O)[C@@H]2C[C@@H](Oc3ccncc3)CN2C1=O)OC1CCCC1 (stereo partly drawn) | 103.036

Identify measured Cell Viability obtained with Colon cancer organoid for CN(C)[C@H]1CCN(c2cc(-c3ccccc3)nc3ccnn23)C1 [(S)-ZINC-3573] .
93.0253

----------
- Test system: Colon cancer organoid
- TEST DESCRIPTION: Identification of compartment-specific drug sensitivities in O06 CRC organoid-stroma F06 CAF co-cultures. Organoid is transduced with Lucferase2-P2A-EGFP lentivirus, fibroblast with Renilla-dsRed lentivirus. Dual-Glo Luciferase assay is used to report viability data.
- Type: functional, Homo sapiens
- Design: dose or concentration left out as unconfirmed
- COND: Transduced with Renilla-dsRed lentivirus
Non-standard residues stand in square brackets, D forms with d. Residues, ends and D or L forms follow the SMILES beside them. Arg(Me) = CNC(=N)NCCC[C@H](N)C(=O)O; d4Pal = N[C@H](Cc1ccncc1)C(=O)O; azaGly = NNC(=O)O
QUANTITY KIND: Cell Viability (%)
Supply the numeric figure in %, leaving out any unit text.

Observe how each entry below is paired with its result.
- Cc1cc2c(-c3ccco3)cnc(N[C@@H]3CCN(C)C[C@H]3C(=O)NC3CCCCC3)c2[nH]c1=O: 134.369
- Cc1nc(-c2cn3c(n2)-c2ccc(-c4cnn(C(C)(C)C(N)=O)c4)cc2OCC3)n(C(C)C)n1: 62.2904
- CNc1cc(Oc2cc(C(=O)Nc3cc(N4CCN(C)CC4)cc(C(F)(F)F)c3)ccc2C)ncn1: 75.3319
- C[C@@H]1CC(=O)Nc2cccc(-c3ccc4c(c3)c(-c3cnn(C)c3)nn4C)c2N1: 166.358

Determine its reported Cell Viability: `Cc1nc(NC(=O)N2CCC[C@H]2C(N)=O)sc1-c1ccnc(C(C)(C)C(F)(F)F)c1`
68.5217

Determine its reported Cell Viability: `CCOc1cc2ncc(C#N)c(Nc3ccc(OCc4cccc(F)c4)c(Cl)c3)c2cc1NC(=O)/C=C/CN(C)C`
39.6819

Determine its reported Cell Viability: `O=C(c1ccc(F)c(F)c1Nc1ccc(I)cc1F)N1CC(O)([C@@H]2CCCCN2)C1`
42.4292

Determine its reported Cell Viability: `COCCc1ccc(-c2c(C)nc3c(N4CCOCC4)ccnn23)cn1`
128.188

Determine its reported Cell Viability: `CN(C)C(=O)c1ccc(-c2cc(C(=O)N(C)C3CCCC3)no2)cc1O`
129.278

Determine its reported Cell Viability: `OCCn1cc(-c2ccc3c(c2)CCC3=NO)c(-c2ccncc2)n1`
109.303

Determine its reported Cell Viability: CNC(=N)NCCC[C@H](NC(=O)[C@H](CC(C)C)NC(=O)NNC(=O)[C@H](Cc1ccccc1)NC(=O)[C@H](CO)NC(=O)[C@H](CC(N)=O)NC(=O)[C@@H](Cc1ccncc1)NC(=O)[C@H](N)Cc1ccc(O)cc1)C(=O)N[C@@H](Cc1ccccc1)C(N)=O [KISS1-305] (H-[dY][d4Pal]NSF[azaGly]L[Arg(Me)]F-NH2)
104.585

----------
- System: Colon cancer organoid
- TEST DESCRIPTION: Identification of compartment-specific drug sensitivities in O20 CRC organoid-stroma F20 CAF co-cultures. Organoid is transduced with Lucferase2-P2A-EGFP lentivirus, fibroblast with Renilla-dsRed lentivirus. Dual-Glo Luciferase assay is used to report viability data.
- Format: functional, Homo sapiens
- Design: dose or concentration left out as unconfirmed
- COND: Transduced with Renilla-dsRed lentivirus
QUANTITY KIND: Cell Viability (%)
Supply the numeric figure in %, leaving out any unit text.

Observe how each entry below is paired with its result.
* CCOC(=O)Nc1cc(-c2ccc(C)c(NS(C)(=O)=O)c2)nn2c(C)nnc12 | 177.965
* CCn1c(-c2nc3cc(C(=O)N4CCCC(N)C4)ccc3n2C)cc2ccccc21.Cl (stereo not drawn) | 136.72
* CNc1nc(Nc2cnn([C@H]3CCN(C4COC4)C[C@@H]3F)c2Cl)ncc1C(F)(F)F | 86.9942
* COc1cccc2c1c(O)c(C(=O)N(C)c1ccc(C(F)(F)F)cc1)c(=O)n2C | 99.9703
* Cc1cc(CN)cc(C)c1-c1ncn(C)c1-c1cncn1C | 117.48

Determine its reported Cell Viability: `COc1ncc(F)cc1CNc1ccc(Cc2c[nH]c3ncc(C)cc23)c(F)n1`
55.6932

Determine its reported Cell Viability: `CCCCNc1ncc(-c2ccc(CN3CCOCC3)cn2)c(N[C@H]2CC[C@H](O)CC2)n1`
223.767

Determine its reported Cell Viability: `COc1cc(OC)cc(-c2noc(N3CCN(C)C4(CCN(c5ccccc5)CC4)C3)n2)c1`
110.491

Determine its reported Cell Viability: `C=CC(=O)Nc1cccc(C(=O)Nc2ccc(Nc3cc(-c4[nH]c(SC)nc4C)ccn3)cc2)c1`
71.728

Determine its reported Cell Viability: `CCOc1cc(N2CCC(O)CC2)ccc1Nc1ncc2c(n1)N(C1CCCC1)CCC(=O)N2C`
144.517

Determine its reported Cell Viability: O=C1c2ccc(Nc3ccc(F)cc3F)cc2CCc2ccc(OC[C@H](O)CO)cc21 [Skepinone-L]
86.6611

Determine its reported Cell Viability: COc1ccc(COc2ccc(Cc3cnc(N)nc3N)cc2OC)cc1 [GW632580X]
84.9331

Determine its reported Cell Viability: COc1ccccc1C(=O)Nc1cc2c(cc1N1CCNCC1C)n(C)c(=O)n2C (stereo not drawn)
107.173

----------
- Test system: Colon cancer organoid
- TEST DESCRIPTION: Identification of compartment-specific drug sensitivities in O06 CRC organoid-stroma F06 CAF co-cultures. Organoid is transduced with Lucferase2-P2A-EGFP lentivirus, fibroblast with Renilla-dsRed lentivirus. Dual-Glo Luciferase assay is used to report viability data.
- Type: functional, Homo sapiens
- Parameters: dose or concentration left out as unconfirmed
- COND: Transduced with Renilla-dsRed lentivirus
QUANTITY KIND: Cell Viability (%)
Supply the numeric figure in %, leaving out any unit text.

Determine its reported Cell Viability: `COc1c(C)cc(NC(=O)c2nn(Cc3ccc(F)cc3)c3c2CN(C(=O)c2ccc[nH]2)C[C@]3(C)C(N)=O)cc1C`
112.674

Determine its reported Cell Viability: `Cn1c(=O)[nH]c2cc(N3C(=O)c4cccc5c(CCCO)ccc(c45)C3=O)ccc21`
110.623

Determine its reported Cell Viability: `CCOC(=O)c1c(/C(C#N)=C\N)c2ccc(Cl)c(Cl)c2n1C`
97.4073

----------
- System: Colon cancer organoid
- TEST DESCRIPTION: Identification of compartment-specific drug sensitivities in O06 CRC organoid-stroma F06 CAF co-cultures. Organoid is transduced with Lucferase2-P2A-EGFP lentivirus, fibroblast with Renilla-dsRed lentivirus. Dual-Glo Luciferase assay is used to report viability data.
- Format: functional, Homo sapiens
- Parameters: dose or concentration left out as unconfirmed
- COND: Transduced with Renilla-dsRed lentivirus
QUANTITY KIND: Cell Viability
Remember to put the unit after the number in your answer.

• CN1CCN(c2ccc(OC(F)(F)F)c(Nc3ncc4c(n3)-c3c(c(C(N)=O)nn3CCO)CC4)c2)CC1 = 160.245%

Determine its reported Cell Viability: `COc1ncc(F)cc1CNc1ccc(Cc2c[nH]c3ncc(C)cc23)c(F)n1`
63.3822%

Determine its reported Cell Viability: `CC[C@H](CO)Nc1nc(NCc2ccccc2)c2ncn(C(C)C)c2n1`
112.199%

Determine its reported Cell Viability: `CNCCN1CCC(c2cc(CN(C)C(=O)c3cccc(Oc4ccccc4)c3)ccn2)CC1`
129.007%

----------
- Test system: Colon cancer organoid
- TEST DESCRIPTION: Identification of compartment-specific drug sensitivities in O06 CRC organoid-stroma F06 CAF co-cultures. Organoid is transduced with Lucferase2-P2A-EGFP lentivirus, fibroblast with Renilla-dsRed lentivirus. Dual-Glo Luciferase assay is used to report viability data.
- Type: functional, Homo sapiens
- Parameters: dose or concentration left out as unconfirmed
- COND: Transduced with Renilla-dsRed lentivirus
QUANTITY KIND: Cell Viability

Observe how each entry below is paired with its result.
- O=C(O)[C@@H]1[C@@H](Cn2nnc3ccccc3c2=O)CC[C@H]1C(=O)c1ccc(OCCC2CCOCC2)cc1: 68.3581%
- Cc1sc2c(c1C)C(c1ccc(Cl)cc1)=N[C@@H](CC(=O)NCCCCCCCCNC(=O)COc1cccc3c1C(=O)N(C1CCC(=O)NC1=O)C3=O)c1nnc(C)n1-2 (some centres not stated): 19.3995%
- Cc1cn(-c2cc(NC(=O)c3ccc4c(c3)CN(c3cncnc3)C[C@@H]4C)cc(C(F)(F)F)c2)cn1: 122.253%
- CC(=O)Nc1c(C(C)=O)c(=O)n(C)c2nc(-c3ccc(Cl)cc3Cl)c(-c3ccc(Cl)cc3)cc12: 141.036%

Determine its reported Cell Viability: `COc1cc(Nc2nccc(-c3cnn4nc(OC)ccc34)n2)cc(C(F)(F)F)c1`
143.538%

Determine its reported Cell Viability: `CC(=O)N1CCC(c2ccc(C(=O)NC(=N)N)cc2C(F)(F)F)CC1`
157.583%

Determine its reported Cell Viability: `CC(C)N(CCCNC(=O)Nc1ccc(C(C)(C)C)cc1)C[C@H]1O[C@@H](n2cc(Br)c3c(N)ncnc32)[C@H](O)[C@@H]1O`
97.8527%
